test: MTT assay, HEL299 fibroblast; assay type: cell-based; details: human
outcomeMeasure: viability (%)
Only the number, expressed in %, is required.

structure: O=c1c2ccccc2sc2c(Cl)c(Sc3ccc(Cl)cc3)ccc12
readingUnit: %
result: 74.5

structure: Cc1ccccc1Sc1ccc2c(=O)c3ccccc3sc2c1Cl
readingUnit: %
result: 91.1

structure: CCOc1cccc(Sc2ccc3c(=O)c4ccccc4sc3c2Cl)c1
readingUnit: %
result: 90.3

structure: Cc1cccc(Sc2ccc3c(=O)c4ccccc4sc3c2Cl)c1
readingUnit: %
result: 74.8

structure: CCSc1ccc2c(=O)c3ccccc3sc2c1Cl
readingUnit: %
result: 34

structure: Cc1ccc(Sc2ccc3c(=O)c4ccccc4sc3c2Cl)c(C)c1
readingUnit: %
result: 108

Next:
Would you mind telling me what viability value was observed for "O=c1c2ccccc2sc2c(Cl)c(Sc3ccc(Br)cc3)ccc12" ?
66.1

----------
tested on: K562; experiment: NCI in vitro DTP human cell line screen, K562; type: cell-based; details: Leukemia, 1.00E−5 Molar
# key: entry, value: Growth Percent
The answer should read as a number with its unit following.

Examples with answers:
structure: COc1ccc(CSc2ccc3c(=O)c4ccccc4sc3c2Cl)cc1
targetOrTestSystem: K562
Growth Percent: 114.13%
//
structure: O=c1c2ccccc2sc2c(Cl)c(SCc3ccccc3)ccc12
targetOrTestSystem: K562
Growth Percent: 86.95%
//
structure: Cc1cc(C)cc(Sc2ccc3c(=O)c4ccccc4sc3c2Cl)c1
targetOrTestSystem: K562
Growth Percent: 100.94%

Would you mind telling me what Growth Percent value was observed for "CCCSc1ccc2c(=O)c3ccccc3sc2c1Cl" ?
94.26%

----------
tested on: MDA-MB-468; experiment: NCI in vitro DTP human cell line screen, MDA-MB-468; assay type: cell-based; details: Breast Cancer, 1.00E−5 Molar
# key: entry, value: Growth Percent
Only the number, expressed in %, is required.

structure: O=c1c2ccccc2sc2c(Cl)c(SCc3ccccc3)ccc12
result: 73.81

Would you mind telling me what Growth Percent value was observed for "O=c1c2ccccc2sc2c(Cl)c(Sc3ccc(Cl)cc3)ccc12" ?
87.73

Would you mind doing "Cc1cc(C)cc(Sc2ccc3c(=O)c4ccccc4sc3c2Cl)c1" as well?
110.63

Would you mind doing "COc1cccc(Sc2ccc3c(=O)c4ccccc4sc3c2Cl)c1" as well?
104.49

----------
system: SK-MEL-5; experiment: NCI in vitro DTP human cell line screen, SK-MEL-5; type: cell-based; conditions: Melanoma, 1.00E−5 Molar
outcomeMeasure: Growth Percent (%)
Only the number, expressed in %, is required.

Examples with answers:
structure: CCCSc1ccc2c(=O)c3ccccc3sc2c1Cl
Growth Percent (%): 98.20
//
structure: Cc1cccc(C)c1Sc1ccc2c(=O)c3ccccc3sc2c1Cl
Growth Percent (%): 104.77
//
structure: O=c1c2ccccc2sc2c(Cl)c(SCc3ccc(Cl)cc3)ccc12
Growth Percent (%): 101.76
//
structure: O=c1c2ccccc2sc2c(Cl)c(Sc3ccc(Cl)cc3)ccc12
Growth Percent (%): 88.35
//
structure: O=c1c2ccccc2sc2c(Cl)c(Sc3ccccc3)ccc12
Growth Percent (%): 95.50

Would you mind telling me what Growth Percent value was observed for "Cc1cc(C)cc(Sc2ccc3c(=O)c4ccccc4sc3c2Cl)c1" ?
104.23

Would you mind doing "COc1ccc(CSc2ccc3c(=O)c4ccccc4sc3c2Cl)cc1" as well?
101.55

----------
test system: CCRF-CEM; assay: NCI in vitro DTP human cell line screen, CCRF-CEM; assay type: cell-based; conditions: Leukemia, 1.00E−5 Molar
# key: entry, value: Growth Percent
Only the number, expressed in %, is required.

structure: Cc1cccc(C)c1Sc1ccc2c(=O)c3ccccc3sc2c1Cl
result: 88.07

structure: COc1ccc(CSc2ccc3c(=O)c4ccccc4sc3c2Cl)cc1
result: 89.83

Would you mind telling me what Growth Percent value was observed for "O=c1c2ccccc2sc2c(Cl)c(SCc3ccc(Cl)cc3)ccc12" ?
92.28

----------
System: UO-31
Experiment: NCI in vitro DTP human cell line screen, UO-31
Format: cell-based
Conditions: Renal Cancer, 1.00E−5 Molar
Procedure: Then, a cell toxicity assay of the cancer lines made by National Cancer Institute will be discussed as follows. The cell toxicity assay is performed by choosing ten compounds (existing certification numbers) from the 59 compounds disclosed in the present invention first.
outcomeMeasure: Growth Percent (%)
Only the number, expressed in %, is required.

structure: O=c1c2ccccc2sc2c(Cl)c(Sc3ccccc3)ccc12
result: 73.68

Would you mind telling me what Growth Percent value was observed for "O=c1c2ccccc2sc2c(Cl)c(SCc3ccc(Cl)cc3)ccc12" ?
89.66

Would you mind doing "COc1cccc(Sc2ccc3c(=O)c4ccccc4sc3c2Cl)c1" as well?
98.31

----------
test system: IGROV1; assay: NCI in vitro DTP human cell line screen, IGROV1; type: cell-based; settings: Ovarian Cancer, 1.00E−5 Molar
Could you label it yes (1) if measured Growth Percent is 80% or higher, and no (0) otherwise?

See these solved cases before continuing.
structure: O=c1c2ccccc2sc2c(Cl)c(SCc3ccccc3)ccc12
categoryLabel: no (0)
--
structure: O=c1c2ccccc2sc2c(Cl)c(Sc3ccc(Cl)cc3)ccc12
categoryLabel: no (0)
--
structure: Cc1cc(C)cc(Sc2ccc3c(=O)c4ccccc4sc3c2Cl)c1
categoryLabel: yes (1)
--
structure: O=c1c2ccccc2sc2c(Cl)c(SCc3ccc(Cl)cc3)ccc12
categoryLabel: yes (1)

Tell me whether Growth Percent is at least 80% here: "COc1ccc(CSc2ccc3c(=O)c4ccccc4sc3c2Cl)cc1"
yes (1)

----------
# key: entry, value: viability
experiment: MTT assay, HEL299 fibroblast; assay type: cell-based; details: human
Only the number, expressed in %, is required.

Examples with answers:
compound: O=c1c2ccccc2sc2c(Cl)c(SC3CCCC3)ccc12 [No. 5]
viability [%]: 89.5

compound: COc1ccc(CSc2ccc3c(=O)c4ccccc4sc3c2Cl)cc1 [No. 27]
viability [%]: 92.4

Would you mind telling me what viability value was observed for COc1cccc(Sc2ccc3c(=O)c4ccccc4sc3c2Cl)c1 [No. 16] ?
90.6

----------
tested on: A3 cell lines; experiment: MTT assay, A3 cell lines (lung cancer stem cell); format: cell-based
# key: entry, value: cell viabilities of A3 cell lines (MTT assay)
Only the number, expressed in %, is required.

Examples with answers:
structure: O=c1c2ccccc2sc2c(Cl)c(SCc3ccc(Br)cc3)ccc12
readingUnit: %
result: 61.5

structure: Cc1ccc(C)c(Sc2ccc3c(=O)c4ccccc4sc3c2Cl)c1
readingUnit: %
result: 96.9

structure: Cc1cccc(C)c1Sc1ccc2c(=O)c3ccccc3sc2c1Cl
readingUnit: %
result: 102

Would you mind telling me what cell viabilities of A3 cell lines (MTT assay) value was observed for "O=c1c2ccccc2sc2c(Cl)c(SC3CCCC3)ccc12" ?
107

Would you mind doing "Cc1cc(C)c(CSc2ccc3c(=O)c4ccccc4sc3c2Cl)c(C)c1" as well?
98.3

Would you mind doing "CCCSc1ccc2c(=O)c3ccccc3sc2c1Cl" as well?
103

Would you mind doing "COc1ccc(CSc2ccc3c(=O)c4ccccc4sc3c2Cl)cc1" as well?
101

Would you mind doing "O=c1c2ccccc2sc2c(Cl)c(Cl)ccc12" as well?
83.7

Would you mind doing "Cc1ccccc1Sc1ccc2c(=O)c3ccccc3sc2c1Cl" as well?
81.6

Would you mind doing "O=c1c2ccccc2sc2c(Cl)c(Sc3ccc(Br)cc3)ccc12" as well?
70.8

Would you mind doing "CCOc1cccc(Sc2ccc3c(=O)c4ccccc4sc3c2Cl)c1" as well?
98.2

Would you mind doing "CC(C)c1ccc(Sc2ccc3c(=O)c4ccccc4sc3c2Cl)cc1" as well?
93.9

Would you mind doing "COc1cccc(Sc2ccc3c(=O)c4ccccc4sc3c2Cl)c1" as well?
90.0

Would you mind doing "Cc1ccc(Sc2ccc3c(=O)c4ccccc4sc3c2Cl)cc1C" as well?
112

Would you mind doing "CCc1ccccc1Sc1ccc2c(=O)c3ccccc3sc2c1Cl" as well?
77.2

Would you mind doing "O=c1c2ccccc2sc2c(Cl)c(Sc3ccc(Cl)cc3)ccc12" as well?
70.3

Would you mind doing "CC(C)Sc1ccc2c(=O)c3ccccc3sc2c1Cl" as well?
56.1

Would you mind doing "Cc1cccc(Sc2ccc3c(=O)c4ccccc4sc3c2Cl)c1" as well?
116

----------
system: NCI-H322M; experiment: NCI in vitro DTP human cell line screen, NCI-H322M; type: cell-based; details: Non-Small Cell Lung Cancer, 1.00E−5 Molar
# key: entry, value: Growth Percent
Only the number, expressed in %, is required.

Examples with answers:
structure: O=c1c2ccccc2sc2c(Cl)c(Sc3ccc(Cl)cc3)ccc12
outcomeMeasure: Growth Percent
result: 56.53
//
structure: O=c1c2ccccc2sc2c(Cl)c(SCc3ccc(F)cc3)ccc12
outcomeMeasure: Growth Percent
result: 89.87
//
structure: COc1cccc(Sc2ccc3c(=O)c4ccccc4sc3c2Cl)c1
outcomeMeasure: Growth Percent
result: 118.28

Next:
Request - read-out Growth Percent | tested on NCI-H322M | molecule "COc1ccc(CSc2ccc3c(=O)c4ccccc4sc3c2Cl)cc1"
95.82
